Condition label: in ethanol, 323.15 K
Assay endpoint: solubility (mole fraction)
// return a plain number; no unit text

[in] Reported solubility (mole fraction), molecule C=C1C[C@]23C[C@H]1CC[C@H]2[C@@]12CC[C@H](O)[C@@](C)(C(=O)O1)[C@H]2[C@@H]3C(=O)O : ____
[out] 0.00273

----------
Condition label: in acetone, 288.15 K
Assay endpoint: solubility (mole fraction)
// return a plain number; no unit text

[in] Reported solubility (mole fraction), molecule C=C1C[C@]23C[C@H]1CC[C@H]2[C@@]12CC[C@H](O)[C@@](C)(C(=O)O1)[C@H]2[C@@H]3C(=O)O : ____
[out] 0.0596

----------
Condition label: in acetonitrile, 308.15 K
Assay endpoint: solubility (mole fraction)
// return a plain number; no unit text

[in] Reported solubility (mole fraction), compound C=C1C[C@]23C[C@H]1CC[C@H]2[C@@]12CC[C@H](O)[C@@](C)(C(=O)O1)[C@H]2[C@@H]3C(=O)O : ____
[out] 0.0108

----------
Condition label: in methanol, 308.15 K
Assay endpoint: solubility (mole fraction)
// return a plain number; no unit text

[in] Reported solubility (mole fraction), compound C=C1C[C@]23C[C@H]1CC[C@H]2[C@@]12CC[C@H](O)[C@@](C)(C(=O)O1)[C@H]2[C@@H]3C(=O)O : ____
[out] 0.0805

----------
Condition label: in methanol, 318.15 K
Assay endpoint: solubility (mole fraction)
// return a plain number; no unit text

[in] Reported solubility (mole fraction), compound C=C1C[C@]23C[C@H]1CC[C@H]2[C@@]12CC[C@H](O)[C@@](C)(C(=O)O1)[C@H]2[C@@H]3C(=O)O : ____
[out] 0.0933

----------
Condition label: in ethyl acetate, 323.15 K
Assay endpoint: solubility (mole fraction)
// return a plain number; no unit text

[in] Reported solubility (mole fraction), molecule C=C1C[C@]23C[C@H]1CC[C@H]2[C@@]12CC[C@H](O)[C@@](C)(C(=O)O1)[C@H]2[C@@H]3C(=O)O : ____
[out] 0.0299

----------
Condition label: in n-butanol, 318.15 K
Assay endpoint: solubility (mole fraction)
// return a plain number; no unit text

[in] Reported solubility (mole fraction), compound C=C1C[C@]23C[C@H]1CC[C@H]2[C@@]12CC[C@H](O)[C@@](C)(C(=O)O1)[C@H]2[C@@H]3C(=O)O : ____
[out] 0.0931

----------
Condition label: in n-butanol, 303.15 K
Assay endpoint: solubility (mole fraction)

[in] Reported solubility (mole fraction), compound C=C1C[C@]23C[C@H]1CC[C@H]2[C@@]12CC[C@H](O)[C@@](C)(C(=O)O1)[C@H]2[C@@H]3C(=O)O : ____
[out] 0.0798

----------
Condition label: in ethyl acetate, 298.15 K
Assay endpoint: solubility (mole fraction)
// return a plain number; no unit text

[in] Reported solubility (mole fraction), compound C=C1C[C@]23C[C@H]1CC[C@H]2[C@@]12CC[C@H](O)[C@@](C)(C(=O)O1)[C@H]2[C@@H]3C(=O)O : ____
[out] 0.0172

----------
Condition label: in n-butanol, 308.15 K
Assay endpoint: solubility (mole fraction)
// return a plain number; no unit text

[in] Reported solubility (mole fraction), compound C=C1C[C@]23C[C@H]1CC[C@H]2[C@@]12CC[C@H](O)[C@@](C)(C(=O)O1)[C@H]2[C@@H]3C(=O)O : ____
[out] 0.0836

----------
Condition label: in methanol, 313.15 K
Assay endpoint: solubility (mole fraction)
// return a plain number; no unit text

[in] Reported solubility (mole fraction), compound C=C1C[C@]23C[C@H]1CC[C@H]2[C@@]12CC[C@H](O)[C@@](C)(C(=O)O1)[C@H]2[C@@H]3C(=O)O : ____
[out] 0.0882

----------
Condition label: in acetone, 333.15 K
Assay endpoint: solubility (mole fraction)
// return a plain number; no unit text

[in] Reported solubility (mole fraction), compound C=C1C[C@]23C[C@H]1CC[C@H]2[C@@]12CC[C@H](O)[C@@](C)(C(=O)O1)[C@H]2[C@@H]3C(=O)O : ____
[out] 0.112

----------
Condition label: in acetonitrile, 328.15 K
Assay endpoint: solubility (mole fraction)
// return a plain number; no unit text

[in] Reported solubility (mole fraction), compound C=C1C[C@]23C[C@H]1CC[C@H]2[C@@]12CC[C@H](O)[C@@](C)(C(=O)O1)[C@H]2[C@@H]3C(=O)O : ____
[out] 0.0168

----------
Condition label: in ethyl acetate, 283.15 K
Assay endpoint: solubility (mole fraction)
// return a plain number; no unit text

[in] Reported solubility (mole fraction), molecule C=C1C[C@]23C[C@H]1CC[C@H]2[C@@]12CC[C@H](O)[C@@](C)(C(=O)O1)[C@H]2[C@@H]3C(=O)O : ____
[out] 0.0118

----------
Condition label: in acetonitrile, 293.15 K
Assay endpoint: solubility (mole fraction)
// return a plain number; no unit text

[in] Reported solubility (mole fraction), compound C=C1C[C@]23C[C@H]1CC[C@H]2[C@@]12CC[C@H](O)[C@@](C)(C(=O)O1)[C@H]2[C@@H]3C(=O)O : ____
[out] 0.00647

----------
Condition label: in methanol, 278.15 K
Assay endpoint: solubility (mole fraction)
// return a plain number; no unit text

[in] Reported solubility (mole fraction), compound C=C1C[C@]23C[C@H]1CC[C@H]2[C@@]12CC[C@H](O)[C@@](C)(C(=O)O1)[C@H]2[C@@H]3C(=O)O : ____
[out] 0.0466

----------
Condition label: in methanol, 293.15 K
Assay endpoint: solubility (mole fraction)
// return a plain number; no unit text

[in] Reported solubility (mole fraction), molecule C=C1C[C@]23C[C@H]1CC[C@H]2[C@@]12CC[C@H](O)[C@@](C)(C(=O)O1)[C@H]2[C@@H]3C(=O)O : ____
[out] 0.0637

----------
Condition label: in n-butanol, 298.15 K
Assay endpoint: solubility (mole fraction)
// return a plain number; no unit text

[in] Reported solubility (mole fraction), compound C=C1C[C@]23C[C@H]1CC[C@H]2[C@@]12CC[C@H](O)[C@@](C)(C(=O)O1)[C@H]2[C@@H]3C(=O)O : ____
[out] 0.0762

----------
Condition label: in acetonitrile, 333.15 K
Assay endpoint: solubility (mole fraction)
// return a plain number; no unit text

[in] Reported solubility (mole fraction), compound C=C1C[C@]23C[C@H]1CC[C@H]2[C@@]12CC[C@H](O)[C@@](C)(C(=O)O1)[C@H]2[C@@H]3C(=O)O : ____
[out] 0.0188

----------
Condition label: in ethanol, 328.15 K
Assay endpoint: solubility (mole fraction)
// return a plain number; no unit text

[in] Reported solubility (mole fraction), compound C=C1C[C@]23C[C@H]1CC[C@H]2[C@@]12CC[C@H](O)[C@@](C)(C(=O)O1)[C@H]2[C@@H]3C(=O)O : ____
[out] 0.00318

----------
Condition label: in ethanol, 303.15 K
Assay endpoint: solubility (mole fraction)
// return a plain number; no unit text

[in] Reported solubility (mole fraction), compound C=C1C[C@]23C[C@H]1CC[C@H]2[C@@]12CC[C@H](O)[C@@](C)(C(=O)O1)[C@H]2[C@@H]3C(=O)O : ____
[out] 0.00159

----------
Condition label: in acetonitrile, 303.15 K
Assay endpoint: solubility (mole fraction)

[in] Reported solubility (mole fraction), compound C=C1C[C@]23C[C@H]1CC[C@H]2[C@@]12CC[C@H](O)[C@@](C)(C(=O)O1)[C@H]2[C@@H]3C(=O)O : ____
[out] 0.00907
